B1: glmS ribozyme (parent)
chain: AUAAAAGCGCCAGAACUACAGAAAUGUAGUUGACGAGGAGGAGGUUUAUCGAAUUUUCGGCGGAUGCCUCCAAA

# Variants of: B1
# measurement notes: self-cleavage kobs at 40 uM GlcN6P; higher = faster cleavage; RNA array
# experimental conditions: with glucosamine-6-phosphate
This sample holds only a part of the variants without activity.
experimental readout: self-cleavage kobs at 40 uM GlcN6P

- G40A G66C: 3.77e-05 s⁻¹
- G29A G37U G40U U65G C68U: < 1e-05 s⁻¹
- G32U C34G: < 1e-05 s⁻¹
- A33C G63U: < 1e-05 s⁻¹
- A42C G60U: < 1e-05 s⁻¹
- C34G G63C: < 1e-05 s⁻¹
- G29A U55C: 0.000113 s⁻¹
- G7C G41U: < 1e-05 s⁻¹
- G7U C34U: < 1e-05 s⁻¹
- A6C A39G G41A U46A A64G: < 1e-05 s⁻¹
- G32U U69G: 7.55e-05 s⁻¹
- A42C C68G: < 1e-05 s⁻¹
- G38U G43C U47C A53U U55A G59C: < 1e-05 s⁻¹
- A6C G35U A36C: < 1e-05 s⁻¹
- A14C G60U: < 1e-05 s⁻¹
- A14G G41A: 0.000282 s⁻¹
- C16A C70U: 5.31e-05 s⁻¹
- A15C A36G: < 1e-05 s⁻¹
- G9U C11A A36G: < 1e-05 s⁻¹
- G7A U46G: < 1e-05 s⁻¹
- C10U U45A C50U G66A: < 1e-05 s⁻¹
- A14U A33U C34G G35C U69A: 3.35e-05 s⁻¹
- C10G U47A G60U C61U: < 1e-05 s⁻¹
- A42C U65C: < 1e-05 s⁻¹
- A48G C61U: < 1e-05 s⁻¹
- U56C G62C: < 1e-05 s⁻¹
- A15C G43A: < 1e-05 s⁻¹
- G59A U65G: < 1e-05 s⁻¹
- C10A G43U: < 1e-05 s⁻¹
- A33G U56A: < 1e-05 s⁻¹
- G29U C70U: 0.000204 s⁻¹
- G32U C58G A64G C67A: 7.51e-05 s⁻¹
- G32C U57A: < 1e-05 s⁻¹
- C16G G40A A64C: < 1e-05 s⁻¹
- G44C U65C: < 1e-05 s⁻¹
- A39U A48G: < 1e-05 s⁻¹
- C10G C68A: < 1e-05 s⁻¹
- G29U G37C A42U: < 1e-05 s⁻¹
- C11U G29C C34A G37U: < 1e-05 s⁻¹
- U45A U46G: 0.00256 s⁻¹
- A6C G13C G29U C70G: < 1e-05 s⁻¹
- G13A U49C: < 1e-05 s⁻¹
- C8G A64G: < 1e-05 s⁻¹
- C10A G43U U45A: < 1e-05 s⁻¹
- A15G U65C U69A: < 1e-05 s⁻¹
- A39U C67G: 0.000162 s⁻¹
- G7U G9A A14U C50G: 0.000146 s⁻¹
- G38U G41C G43A: < 1e-05 s⁻¹
- A33U C61G: < 1e-05 s⁻¹
- G9U G41U: < 1e-05 s⁻¹
- A39U U54C: 0.000447 s⁻¹
- G9C C58G C68A: < 1e-05 s⁻¹
- G35A C61G U65G C67A U69G: 6.66e-05 s⁻¹
- A14G A39C G66A: 9.51e-05 s⁻¹
- A12U U47C: 0.00032 s⁻¹
- A33C G40A C67G: < 1e-05 s⁻¹
- G21U G40C: 0.000253 s⁻¹
- G13C U57C: < 1e-05 s⁻¹
- G44U U46G: < 1e-05 s⁻¹
- C67U C71G: 1.88e-05 s⁻¹
- A15C U31G: 8.5e-05 s⁻¹
- G44A C71A: < 1e-05 s⁻¹
- G40U U56G G62C C67G: < 1e-05 s⁻¹
- C8A G60U: < 1e-05 s⁻¹
- A53G C67A C70U: 0.000161 s⁻¹
- A42U G51C: < 1e-05 s⁻¹
- A15U G29C A39G: 6.29e-05 s⁻¹
- C10G G13U A14U: < 1e-05 s⁻¹
- A39C C70A: < 1e-05 s⁻¹
- A6C G43C: < 1e-05 s⁻¹
- G32A U49G: < 1e-05 s⁻¹
- A14C A15C: 4.27e-05 s⁻¹
- G32A A52C: < 1e-05 s⁻¹
- A6G C50U C58U U65G: < 1e-05 s⁻¹
- A53U U55A C67G: 0.000155 s⁻¹
- C11U G37U G43U G63U: < 1e-05 s⁻¹
- G7A G66U: < 1e-05 s⁻¹
- A36G A39U G43C C61G: < 1e-05 s⁻¹
- G7A G51U: < 1e-05 s⁻¹
- A6G G62U: < 1e-05 s⁻¹
- U46A G51A: < 1e-05 s⁻¹
- U46A U57C: < 1e-05 s⁻¹
- A6C C16A: < 1e-05 s⁻¹
- A12G A64C: < 1e-05 s⁻¹
- A39G C50U C58U: < 1e-05 s⁻¹
- U47C U65G: 4.89e-05 s⁻¹
- G32C A64C: < 1e-05 s⁻¹
- C10U C50G U57G: 0.000105 s⁻¹
- A14G U31A: 0.00248 s⁻¹
- A36G U45G G51U U54C U56A C68A: < 1e-05 s⁻¹
- C10A A36G G40C U47G: < 1e-05 s⁻¹
